assay: soluble on expression in E. coli; label from the status in PepcDB or PDB records
readout-name: soluble on expression in E. coli

MGSDKIHHHHHHMVARRRLDAELVRRKIARSREHAVEMIRGRRVFVAGMLALKPATVVEPEVSIRVEEDASEDWASRGAHKLLGALESFEPLGLKVKGRRVLDAGASTGGFTDVLLRREASEVVAVDVGYGQLIWRLQNDDRVRVVDRTNIRYMTLEDTGGECDMMVGDLSFISLKLTLPAIAKVLSDGADLLPMVKPQFEVGKDRLGSGGVVRSPELRAEVTADVAKFAATLGLSLKHVVASPLPGPSGNVEYFLWLVKDGGASMPDDQQLSAMIDTAVKEGPQ
not soluble
MSLQVFGVSRSGYYNWVQHEPSDRKQSDERLKLEIKVAHIRTRETYGTRRLQTELAENGIIVGRDRLARLRKELRLRCKQKRKFRATTNSNHNLPVAPNLLNQTFAPTAPNQVWVADLTYVATQEGWLYLAGIKDVYTCEIVGYAMGERMTKELTGKALFMALRSQRPPAGLIHHSDRGSQYCAYDYRVIQEQFGLKTSMSRKGNCYDNAPMESFWGTLKNESLSHYRFNNRDEAISVIREYIEIFYNRQRRHSRLGNISPATFREKYHQMAAEGHHHHHH
not soluble

* * *

experiment: soluble on expression in E. coli; label from the status in PepcDB or PDB records
readout-name: soluble on expression in E. coli

EVRALQLEYDQSMEAYQKLVEISPDAIYIQSMEGEILFANPSGIKLLGATDLNELVGLSVMNFIHPDYLNVVENRIGDAENLSGNISEQKAVTLKGEILDIEVVSVAFSYNGKAAEQVIVRNVT
not soluble
MGSDKIHHHHHHMPILLLAQSDAHLSLGAAQGPGAELDRRACEQLDIPVLRRPLGGGVVWVDPGQLNYFFIFPAAAGVRRAPELFDRIAPWVLAVHAHFGLEVEVRGGQDFWCRGRKIGGTGAASIGHSLVLGGSFILEAQWTSFADCVAAPSAGFRAWLKEALEEDLGSWSRLLGRVVGPEVVLDACPALLHAAGWDVVVTRPTEAERRAMTQVELEDVDWEQPVRRRVRAGIKLKAGAFLTEQHWPDGHWLRVWTENGTFRRIAGSAWSAGQGDTLTGLQPGSERFDERLREMAGAGAALWGERLSETAVWAD
not soluble
MEYLFLRRKKTSSTSVRQKTLLYRAAGREWTARFSSLSDVRPADSLIYKGILYQLEIRRAFLDSSLSLKKLSMMLETNQTYLSNAVNRYFGCHLKELLNRYRVEYAKELLRNGGCPLGEVPSRSGFGSKSPFYLAFVRQTGMTPKRYAARERNLVNLEIENEVLL
not soluble
MSLELKNKKIVVTGGTSGIGLAFAKKLAAIDNQIIIGSRSKEKITEVVKDNKNISGYQVDVSDQESVERFYKQTISEFKNIDIVINSAGIMRHYNLLDEKTTSQKLQAEIQTNLIGTINIDKIFLPILRKQAESMIVNISSGLANLSSAAHPIYSATKAGVHMFTDALREQLHFAGEDHIHIVELVPPLVAETNLEKDVNSQNTPLNIKLSDLINEAIQGIEENSIRINAGMAKEMRKMGQTDPDKNEREMATMMIPMYFPDGLKEGHHHHHH
not soluble
MSLMSSKPIYKRVLLKASGEALMGDQGFGIDVAVADRIASDIAEARAMGVEVGVVVGGGNIFRGVAVASKGGDRVTGDHMGMLATVINALALATSLRKLSIDTVVLSAIAMPEICESFSQRAALHHLAQGRVVIFAGGTGNPFFTTDSAAALRAAEMGAEAIFKGTQVDGIYSADPKKDPTATRFDELTHSEVLGKGLAVMDIAAVALARENHIPIIVFSIHEKGGFAQILTGGGRKTIVHDKEGHHHHHH
soluble

Entry under review: MIVTTAGRTNKEMTDYANEVAAELNASFVKRNDIPVHKLHEQYEQDVLVVGKNRLAIYPKGTEESFFFHPNSAMFRVKRLMRGEHDPFVQATQLERGMTVLDCTLGMASDSIVASYVVGESGKVTGLEGNEYMAYIMENGLKTWSSSVSEIDEAMQRIQVKQTEHFSFLAQCEDNSYDVVYLDPMFEETVIESDGIKGLKHFALYHDITDETIAEAKRVARKRVVLKDHFRSSRFEKHNFYVYKRKSAKFHFGVIDPC . Reported soluble on expression in E. coli?
not soluble

Entry under review: HVGYPLLLKWLPLKPKANDEGEHFAERHYKASASDNKLPSVTIIIPAYNEEQWIAEKIRNLASLDYPRDKLKVVIACDGCTDKTAEIAQDTIQEAICSDTLFIVNDHSINRGKVALINEEMKHVTSDITALSDTSALVSCDSLLLASQHYQNEKVGVVNATYQIMRTSNQGEAAYWQYQSRVKHQESLLGSTIGSHGAFYTFRTKLFEPLEAGTINDDFILPMRIVLRGFTSVYEPKMLALELEQSSDDADFKRRLRISAGNMQQLMQLKKLLLPRYRGTAFAFLSGKVLR . Reported soluble on expression in E. coli?
not soluble

Entry under review: MGNFTFEEMNLMCIYNTGSRTGLIDSLREMRGELSPEETELRELTDSALTKLCAMTDEDFAQLELYPDFDQLEHHHHHH . Reported soluble on expression in E. coli?
soluble

* * *

assay: soluble on expression in E. coli; label from the status in PepcDB or PDB records
readout-name: soluble on expression in E. coli

Some solved cases for reference:
MGSDKIHHHHHHMMKSVLADAVFGGALMIEFYASEALICPRRVWFRLKGIPEKWPEVAKPRLEKGMKIHEVLGKVLKDRFDVELEKSVIIRFPKLGMEIHGKIDVYKEFPIEIKGKSYIPSSPIDYHLAQLNLYLRGVNAEYGYLYYVKLTDDPWRAISDIVFDSFPLIKGNGLKIFEVPYDEVLFKETVKYFYEIKLYLENDELPPAWKGPHCKFCPYNYICLSGEEF
not soluble
AIASFITNPSIFSGLKLSNAQRKVKSDLECIRKSKLFQRKRIVPERRRLGLVACGTEEDRTHQRSQWGGEDSDYFGRDPRKETEFWMEHAKEVLESKEVADAVEAHKKSGSSNLTEEQKAWLEFARSITPKPEDEE
soluble
MSLKSIAQEHDCLLIDLDGTVFCGRQPTGGAVQSLSQVRSRKLFVTNNASRSADEVAAHLCELGFTATGEDVVTSAQSAAHLLAGQLAPGARVLIVGTEALANEVAAVGLRPVRRFEDRPDAVVQGLSMTTGWSDLAEAALAIRAGALWVAANVDPTLPTERGLLPGNGSMVAALRTATGMDPRVAGKPAPALMTEAVARGDFRAALVVGDRLDTDIEGANAAGLPSLMVLTGVNSAWDAVYAEPVRRPTYIGHDLRSLHQDSKLLAVAPQPGWQIDVGGGAVTVCANGDVDDLEFIDDGLSIVRAVASAVWEARAADLHQRPLRIEAGDERARAALQRWSLMRSDHPVTSVGTQEGHHHHHH
not soluble
MPVRKAKAVWEGGLRQGKGVMELQSQAFQGPYSYPSRFEEGEGTNPEELIAAAHAGCFSMALAASLEREGFPPKRVSTEARVHLEVVDGKPTLTRIELLTEAEVPGISSEKFLEIAEAAKEGCPVSRALAGVKEVVLTARLV
soluble
MLLHLPNGDVLCVWFGGTQEGIADISIYMSRLVKDSGSWSKAAKLSEDATRSEQNPVLFLAPDNVLWLLYTAQKSGNQDTAIVRYRQSTDLGATWGEIGTLLDQPGTFIRQPITVLENGDWLLPVFYCRVQPGEKWVGNDDDSAVKISSDQGKTWREYPVPNSTGCVHMNITPLQDGTLLALYRSRWADFIYQSRSTDGGKTWSEPVATDLPNNNSSIQVTTLKNGHLALVFNHMSAADATDRRLSLYDELEHHHHHH
soluble
MKLYQHIETLWDYMQLKQDLKPADCLFVMCSNDVRVAEHAAALYHQKLAPLIVFSGGEGRFTDGLFEKSEAETFADIARLAGVPSDAILVETRSTNSGENVRFTEQLLKEKGIQCESIILVQKPFMERRAIATFEKQWQSPYSQVQVSSTAHPFFEYINEDMPLMMVLEALMEDFSRVKSYPEKGFQTKQDIPNQVDSSYQVLLERFGFDLVLEHHHHHH
not soluble
DDYDQSLCSTGFYVVRSNQINPETLLTLFKSLPIQQLLKKACSGTILTGIGKQEFEKIPIPLIRPEVQEEIAQHVQRSFALRKEASELLEKAKLSVEYAIETGGGNSLIYSGLLNTLAKYERLAMWLLLKELGIVDESPNRQRVVTTEKRLSESFFTSGRLDAEYYQPKYDYLDAQFSSIPTKRLGDIVNIHKSIEPGSDAYQENGIPFVRVADLSKFGIETSSICLDSSTYSTAPRPRKNTILLSKDGSVGIAYKMEEDADIITSGAILHLSMKGKELLPDYLTLVLNSPIVRMQAERDAGGSIIQHWKPSEISQVIIPMLPVYIQQKLSDLVSKSFAFRRESKALLERAKAMVEQAIEFSA
not soluble
MGSDKIHHHHHHMLKHFGSKVRNLRVTRNITREDFCGDETELSVRQLARIESGQSIPNLTKAHYIAKQLNVKLDILTGGESLELPKRYKELKYLILRIPTYADAERLKLRECQFDHIFEEFYDNLPEDECLAIDSLQAKFEVYQTGDINFGVEVLCECFDKVKYKEKYTLNDLIIIDLFLTCAVVSKFNNRAFTKEVFQTICKTLISQNHKLTAEDLFWFNHVLLNCVFVGLCLNSEECLAEMLEVSRQTMVSTHDFHKMPLYFMYQWKYFITIDNDIKSAENAYQQSIMFSKMIDDKHLIKKLELEWQEDITGH
not soluble

Entry under review: ESRSQISRRNQDMLLSVLDLEKMTVDDIMVPRSEIIGIDINDDWKSILRQLSHSPHGRIVLYRDSLDDAISMLRVREAWRLMSEKKEFTKETMLRAADEIYFVPEGTPLSTQLVKFQRNKKKVGLVVNEYGDIQGLVTVEDILE . Reported soluble on expression in E. coli?
not soluble

Entry under review: MGLISKNRGPCQVCHNTETTRRHFGIISCTACAAFFRRSIGMQYLCTAENRCTISFDRKFFCRACRYASCLKAGMKLELIRKQKNNIYLRFPDAASNQQNLVRDSMSPATSEGGQSSSSKTDEESDDPEYSKILKMYHDDLLQYYVKEVKKMMAEKRRGCEKNTLQIKTISDLMLITARQSGPSMEECLRCPGVDMLEKEDVEALLRYYRFSNIWVDSVLIDSVLESAKGDSHTDTDDRLSRFIQEVKSTLGSSLAHLNLNIYEFAAFKALCIWKLRFYETSFAQKIIAHEHYEGVTGALRNYYENCTELADMEIAIRIGDITLQIVTVQNTYHEMVRLYYQIGMPL . Reported soluble on expression in E. coli?
not soluble

Entry under review: MAPAEILNGKEISAQIRARLKNQVTQLKEQVPGFTPRLAILQVGNRDDSNLYINVKLKAAEEIGIKATHIKLPRTTTESEVMKYITSLNEDSTVHGFLVQLPLDSENSINTEEVINAIAPEKDVDGLTSINAGRLARGDLNDCFIPCTPKGCLELIKETGVPIAGRHAVVVGRSKIVGAPMHDLLLWNNATVTTCHSKTAHLDEEVNKGDILVVATGQPEMVKGEWIKPGAIVIDCGINYVPDDKKPNGRKVVGDVAYDEAKERASFITPVPGGVGPMTVAMLMQSTVESAKRFLEKFKPGKWMIQ . Reported soluble on expression in E. coli?
soluble
